Data provenance: the supplement of paper PMC11172423

Tested on: Madurella mycetomatis MM55
procedure_summary: growth relative to untreated control; higher = less inhibition, active = 20 or less
applied_conditions: 100 µM
Task for the reader: assign each of the following molecules its reported growth.
Give bare numbers, in %.

{"molecule": "CC(C)n1ncc2c(C(=O)N3CCCc4ccccc43)cc(-c3ccccc3)nc21", "growth (%)": 59.8}

Would you be so kind as to report growth for each listed record?
1. CC[C@H](C)[C@H]1O[C@]2(CC[C@@H]1C)C[C@@H]1C[C@@H](C/C=C(\C)[C@@H](O[C@H]3C[C@H](OC)[C@@H](O[C@H]4C[C@H](OC)[C@@H](O)[C@H](C)O4)[C@H](C)O3)[C@@H](C)/C=C/C=C3\CO[C@@H]4[C@H](O)C(C)=C[C@@H](C(=O)O1)[C@]34O)O2
2. Cc1c2c(n3c(nc4ccccc43)c1C#N)N(CCN(C)C)CC2
3. CC(C)c1cc(Oc2ccccc2)cc(C(C)C)c1NC(=S)NC(C)(C)C
4. COc1cc(N2CCN(C)CC2)ccc1Nc1nccc(-c2cn(C)c3cnccc23)n1
5. CN(C)CCCN1C(=O)c2[nH]nc(-c3ccc(Cl)cc3O)c2C1c1ccc(Cl)cc1 (configuration not stated)

Output line:
1. 112
2. 43.7
3. 166
4. 4.78
5. 6.84

Form field growth, entry CCC(C)(C)n1nnnc1C(c1cc2ccc(C)cc2[nH]c1=O)N1CCN(c2ccccc2)CC1 (configuration not stated) : 91.7

* * *

Test system: Madurella mycetomatis MM55
procedure_summary: growth relative to untreated control; higher = less inhibition, active = 20 or less
applied_conditions: 100 µM
Choose one outcome from this list and give only that: active, inactive

Please review the entries below; each comes with its answer.
{"compound_string": "Cc1cc2c(cc1Cl)N(C(=O)Nc1cc(F)cc(-c3cncnc3)c1)CC2", "discrete_label": "inactive"}
{"compound_string": "Cc1cccnc1-c1noc(-c2ccccc2)n1", "discrete_label": "inactive"}
{"compound_string": "CN(C)C[C]1[CH][CH][CH][C]1CNc1ccnc2cc(Cl)ccc12.[CH]1[CH][CH][CH][CH]1.[Fe]", "discrete_label": "inactive"}

Input line: Hey, what did the test say about C[C@@H](O[C@H]1OCCN(Cc2n[nH]c(O)n2)[C@H]1c1ccc(F)cc1)c1cc(C(F)(F)F)cc(C(F)(F)F)c1 ?
Output line: active

Input line: Give the logged outcome of this assay for the following compound: CO[C@@H](C(=O)N1Cc2[nH]nc(NC(=O)c3ccc(N4CCN(C)CC4)cc3)c2C1)c1ccccc1
Output line: inactive

Input line: Recorded call for O=c1c(Cl)c(OCc2ccc(Cl)nc2)cnn1-c1ccc(Cl)c(Cl)c1 ?
Output line: inactive

* * *

System: Falciformispora senegalensis CBS197.79
procedure_summary: growth relative to untreated control; higher = less inhibition, active = 20 or less
applied_conditions: 25 µM
property_name: growth (%)
Numbers only, in %.

{"molecule": "Cc1nc(NC2(c3ccc(C#N)cc3)CC2)nc(NCC2COC2)c1C", "target_entity": "Falciformispora senegalensis CBS197.79", "quantitative_result": 97.1}
{"molecule": "C[C@H]1O[C@@H](O[C@H]2[C@@H](O)C[C@H](O[C@H]3[C@@H](O)C[C@H](O[C@H]4CC[C@@]5(C)[C@H](CC[C@@H]6[C@@H]5CC[C@]5(C)[C@@H](C7=CC(=O)OC7)CC[C@]65O)C4)O[C@@H]3C)O[C@@H]2C)C[C@H](O)[C@@H]1O", "target_entity": "Falciformispora senegalensis CBS197.79", "quantitative_result": 99.1}

Now look at this entry.
growth recorded for this molecule, CS(=O)(=O)c1ccc(-c2cnn3c2NC(c2cccc(S(=O)(=O)C4CC4)c2)CC3)cc1 (stereo not drawn) , is 72.5
